Tested on: CP262
Assay: qHTS profiling for inhibitors of Plasmodium falciparum proliferation (AID 504749); note: nearly all actives have a fitted effect of over 60% in size
Conditions: P. falciparum in erythrocytes, SYBR Green DNA, 72 h; series mostly up to 28.7 µM
Results filed as inconclusive are left out. Calls of active or inactive are those of the source. Calls come from the whole dose curve; as a rule, active = well fitted inhibition curve with a large enough effect; inconclusive = small, poorly fitted or top-dose-only effect; inactive = flat fitted curve, though single readings scatter.
Outcomes: 1 (yes) for active, 0 (no) for inactive

- compound: "Nc1ccc(S(=O)(=O)Nc2cnc3ccccc3n2)cc1"
  cat: "0 (no)"
- compound: "O=C(NCCc1c[nH]c2ccccc12)c1cccnc1"
  cat: "0 (no)"
- compound: "Nc1ccc(S(=O)(=O)NCc2ccccc2)cc1"
  cat: "0 (no)"
- compound: "O=C1C(CCS(=O)c2ccccc2)C(=O)N(c2ccccc2)N1c1ccccc1 (stereo not given)"
  cat: "0 (no)"
- compound: "COc1ccc(CCN(C)CCCN2CCc3cc(OC)c(OC)cc3CC2=O)cc1OC"
  cat: "0 (no)"
- compound: "NS(=O)(=O)Cc1noc2ccccc12"
  cat: "0 (no)"
- compound: "CCc1ccc(C(=O)C(C)CN2CCCCC2)cc1 (stereo not given)"
  cat: "0 (no)"
- compound: "Cc1cc(C)cc(OCC2CNC(=O)O2)c1 (stereo not given)"
  cat: "0 (no)"
- compound: "OCc1ccccn1"
  cat: "0 (no)"
- compound: "CCCCCCCCCCCCCCCC(=O)O"
  cat: "0 (no)"
- compound: "CCC(C(=O)OCCOCCN(CC)CC)c1ccccc1 (stereo not given)"
  cat: "0 (no)"
- compound: "Cc1ccccc1OCC(O)CO (stereo not given)"
  cat: "0 (no)"
- compound: "CCCCC(CC)COC(=O)c1ccc(N(C)C)cc1 (stereo not given)"
  cat: "0 (no)"
- compound: "N#CCC(=O)NN"
  cat: "0 (no)"
- compound: "CCc1oc2ccccc2c1C(=O)c1cc(I)c(O)c(I)c1"
  cat: "0 (no)"
- compound: "C[C@@H](O)[C@H]1C(=O)N2C(C(=O)O)=C(S[C@@H]3CN[C@H](CNS(N)(=O)=O)C3)[C@H](C)[C@H]12"
  cat: "0 (no)"
- compound: "O[C@@H](c1cc(C(F)(F)F)nc2c(C(F)(F)F)cccc12)[C@H]1CCCCN1"
  cat: "1 (yes)"
- compound: "CC1(COc2ccc(CC3SC(=O)NC3=O)cc2)CCCCC1 (stereo not given)"
  cat: "0 (no)"
- compound: "Oc1ccccc1C=NCc1ccccc1"
  cat: "0 (no)"
- compound: "CC(=O)OC[C@H]1O[C@@H](n2ncc(=O)[nH]c2=O)[C@H](OC(C)=O)[C@@H]1OC(C)=O"
  cat: "0 (no)"
- compound: "Cc1ccc(-c2ncc(Cl)cc2-c2ccc(S(C)(=O)=O)cc2)cn1"
  cat: "0 (no)"
- compound: "O=C(O)C(Cc1cc(I)c(O)c(I)c1)c1ccccc1 (stereo not given)"
  cat: "0 (no)"
- compound: "Cc1nc(-c2ccc(Cl)cc2)oc1COC(C)(C)C(=O)O"
  cat: "0 (no)"
- compound: "COc1ccc(C(=O)c2ccccc2)c(O)c1"
  cat: "0 (no)"
- compound: "N/C(=N\\N=C\\c1ccc(Cl)cc1)N/N=C/c1ccc(Cl)cc1"
  cat: "0 (no)"
